Assign viability, T/C to each entry below.
# Test system: MDA-MB-231 multicell spheroids, viability (%T/C)
# test.details: Anticancer human tumor MDA-MB-231 cell line growth inhibition [IpAb];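 note: viability read after seven days of drug exposure; 100% = DMSO vehicle control viability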
# run.parameters: second compound 0.316 µM; first compound 0.000316 µM; active compounds read low
Please respond with the number in % and leave the unit unwritten.

Entry under test: CC(C)n1nc(-c2ccc3oc(N)nc3c2)c2c(N)ncnc21 + CCN1CCN(Cc2ccc(Nc3ncc(F)c(-c4cc(F)c5nc(C)n(C(C)C)c5c4)n3)nc2)CC1 . Its viability, T/C was 41.7

Entry under test: CC(C)n1nc(-c2ccc3oc(N)nc3c2)c2c(N)ncnc21 + CC(C)NCC(C(=O)N1CCN(c2ncnc3c2C(C)CC3O)CC1)c1ccc(Cl)cc1 . Its viability, T/C was 86.8

Entry under test: Cn1ncnc1[C@H]1c2n[nH]c(=O)c3cc(F)cc(c23)N[C@@H]1c1ccc(F)cc1 + CCN1CCN(Cc2ccc(Nc3ncc(F)c(-c4cc(F)c5nc(C)n(C(C)C)c5c4)n3)nc2)CC1 . Its viability, T/C was 46.5

Entry under test: Cn1ncnc1[C@H]1c2n[nH]c(=O)c3cc(F)cc(c23)N[C@@H]1c1ccc(F)cc1 + CC(C)NCC(C(=O)N1CCN(c2ncnc3c2C(C)CC3O)CC1)c1ccc(Cl)cc1 . Its viability, T/C was 83.9
